target: SMARCA2 (Homo sapiens, UniProt P51531); assay: HiBiT assay for protein degradation, Hela SMARCA2-HiBiT cells (A series); type: cell-based; design: Hela cells were genetically modified via CRISPR/Cas9 to fuse HiBiT to the carboxy terminus of SMARCA2; host or cells: HeLa (CRISPR/Cas9 HiBiT knock-in); conditions: Hela SMARCA2-HiBiT cells, 24 hours treatment; read-out: SMARC A2 Hela HiBit Dmax (%)
Sequence (P51531 whole entry): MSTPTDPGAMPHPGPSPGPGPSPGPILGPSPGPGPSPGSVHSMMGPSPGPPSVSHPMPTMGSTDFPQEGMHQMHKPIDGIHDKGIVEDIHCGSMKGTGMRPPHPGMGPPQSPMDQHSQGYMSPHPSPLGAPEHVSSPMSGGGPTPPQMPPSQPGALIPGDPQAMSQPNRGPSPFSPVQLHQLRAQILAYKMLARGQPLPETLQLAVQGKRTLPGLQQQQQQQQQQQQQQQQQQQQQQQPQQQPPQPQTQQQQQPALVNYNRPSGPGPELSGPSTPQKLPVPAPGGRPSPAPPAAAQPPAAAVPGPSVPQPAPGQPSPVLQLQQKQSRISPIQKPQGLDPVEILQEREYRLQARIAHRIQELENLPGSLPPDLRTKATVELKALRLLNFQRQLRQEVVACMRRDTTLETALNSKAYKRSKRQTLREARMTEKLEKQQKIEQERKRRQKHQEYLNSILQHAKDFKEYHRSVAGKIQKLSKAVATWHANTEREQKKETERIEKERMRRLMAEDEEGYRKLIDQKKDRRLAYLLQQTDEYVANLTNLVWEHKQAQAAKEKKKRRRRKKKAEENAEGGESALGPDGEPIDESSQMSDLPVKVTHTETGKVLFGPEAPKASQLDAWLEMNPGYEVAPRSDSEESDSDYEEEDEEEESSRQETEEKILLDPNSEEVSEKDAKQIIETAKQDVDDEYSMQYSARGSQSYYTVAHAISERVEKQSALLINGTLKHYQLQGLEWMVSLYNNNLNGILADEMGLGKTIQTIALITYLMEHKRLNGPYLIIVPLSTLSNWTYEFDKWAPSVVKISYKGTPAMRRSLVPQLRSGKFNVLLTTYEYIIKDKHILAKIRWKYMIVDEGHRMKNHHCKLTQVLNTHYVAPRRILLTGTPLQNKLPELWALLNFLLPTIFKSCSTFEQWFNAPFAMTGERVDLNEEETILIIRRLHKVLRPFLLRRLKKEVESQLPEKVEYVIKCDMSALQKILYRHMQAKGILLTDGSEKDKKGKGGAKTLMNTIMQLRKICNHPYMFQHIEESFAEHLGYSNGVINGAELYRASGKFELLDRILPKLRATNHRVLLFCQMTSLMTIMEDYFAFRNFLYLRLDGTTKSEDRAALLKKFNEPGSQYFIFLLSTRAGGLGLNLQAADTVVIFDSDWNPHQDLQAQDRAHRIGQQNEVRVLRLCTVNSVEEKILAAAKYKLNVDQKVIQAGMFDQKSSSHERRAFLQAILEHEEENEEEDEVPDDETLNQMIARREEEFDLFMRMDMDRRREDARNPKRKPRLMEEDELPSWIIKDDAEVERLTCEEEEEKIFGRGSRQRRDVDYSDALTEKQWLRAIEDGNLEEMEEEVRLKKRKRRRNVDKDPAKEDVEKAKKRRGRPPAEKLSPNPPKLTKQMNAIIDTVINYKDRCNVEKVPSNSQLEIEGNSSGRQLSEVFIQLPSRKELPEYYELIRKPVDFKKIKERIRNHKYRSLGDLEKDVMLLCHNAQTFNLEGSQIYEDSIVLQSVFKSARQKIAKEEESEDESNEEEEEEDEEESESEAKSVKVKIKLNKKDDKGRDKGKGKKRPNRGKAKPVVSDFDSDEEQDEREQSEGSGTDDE
Exercise: for every item that follows, state its recorded Dmax.

molecule="Cc1ncsc1-c1ccc([C@H](CC(=O)N2CCC(CN3CCC(c4ccc5c(c4)-n4c(nc(=O)c6c(Br)cccc64)C54CCCCC4)CC3)CC2)NC(=O)[C@@H]2C[C@@H](O)CN2C(=O)[C@@H](n2cc(C3CC3)nn2)C(C)(C)C)cc1 [Compound A141]" tgt="SMARCA2 (Homo sapiens, UniProt P51531)" property_measured=Dmax measured="> 90%"

Need Dmax of Cc1ncsc1-c1ccc([C@H](CCCCCN2CCC(c3ccc4c(c3)C3(CCCCC3)c3nc(=O)c5c(Br)cccc5n3-4)CC2)NC(=O)[C@@H]2C[C@@H](O)CN2C(=O)[C@@H](NC(=O)C2(N(C)C)CC2)C(C)(C)C)cc1 [Compound A17] , thanks.
70 to 90%

---

biological target: SMARCA2 (Homo sapiens, UniProt P51531); test: HiBiT assay for protein degradation, Hela SMARCA2-HiBiT cells (A series); type: cell-based; design: Hela cells were genetically modified via CRISPR/Cas9 to fuse HiBiT to the carboxy terminus of SMARCA2; host or cells: HeLa (CRISPR/Cas9 HiBiT knock-in); conditions: Hela SMARCA2-HiBiT cells, 24 hours treatment; read-out: SMARC A2 Hela HiBit DC50
Exercise: for every item that follows, state its recorded DC50.

Solved cases below.
compound=Cc1ncsc1-c1ccc([C@H](CO)NC(=O)[C@@H]2C[C@@H](O)CN2C(=O)[C@H](C2CCCCC2)n2cc(-c3ccc(CN4CCC(c5ccc6c(c5)-n5c(nc(=O)c7c(Br)cccc75)C65CCCCC5)CC4)cc3)nn2)cc1 measured="0.1 to 1 µM"
compound=Cc1ncsc1-c1ccc([C@@H](NC(=O)[C@@H]2C[C@@H](O)CN2C(=O)[C@@H](n2cc(C3CC3)nn2)C(C)(C)C)C(=O)N2CCC(N3CCC(c4ccc5c(c4)-n4c(nc(=O)c6c(Br)cccc64)C54CCCCC4)CC3)CC2)cc1 measured="< 0.01 µM"
compound=Cc1ncsc1-c1ccc([C@@H](NC(=O)[C@@H]2C[C@@H](O)CN2C(=O)[C@@H](n2cc(C3CC3)nn2)C(C)(C)C)C(=O)N2CCC(CN3CCC(c4ccc5c(c4)-n4c(nc(=O)c6c(Br)cccc64)C54CCCCC4)CC3)CC2)cc1 measured="< 0.01 µM"
compound=Cc1ncsc1-c1ccc([C@H](CN2CCOCC2)NC(=O)[C@@H]2C[C@@H](O)CN2C(=O)[C@H](C(C)C)n2cc([C@H]3CC[C@H](CN4CCC(c5ccc6c(c5)-n5c(nc(=O)c7c(Cl)cccc75)C65CCCCC5)CC4)CC3)nn2)cc1 measured="< 0.01 µM"
compound=Cc1ncsc1-c1ccc([C@H](CN2CCOCC2)NC(=O)[C@@H]2C[C@@H](O)CN2C(=O)[C@H](C2CCCCC2)n2cc(-c3ccc(CN4CCC(c5ccc6c(c5)-n5c(nc(=O)c7c(Br)cccc75)C65CCCCC5)CC4)cc3)nn2)cc1 measured="0.1 to 1 µM"

# map each compound to its DC50
1. Cc1ncsc1-c1ccc([C@H](CN(C)C)NC(=O)[C@@H]2C[C@@H](O)CN2C(=O)[C@@H](NC(=O)[C@H]2CC[C@H](CN3CCC(c4ccc5c(c4)C4(CCCCC4)c4nc(=O)c6c(Br)cccc6n4-5)CC3)CC2)C(C)(C)C)cc1
2. Cc1ncsc1-c1ccc([C@@H](C)NC(=O)[C@@H]2C[C@@H](O)CN2C(=O)C(c2cc(N3CCC(CN4CCC(c5ccc6c(c5)C5(CCCCC5)c5nc(=O)c7c(Br)cccc7n5-6)CC4)CC3)no2)C(C)C)cc1 (some centres unmarked)
3. Cc1nc(C)c(-c2ccc([C@H](CN3CCOCC3)NC(=O)[C@@H]3C[C@@H](O)CN3C(=O)[C@@H](n3cc([C@H]4CC[C@H](CN5CCC(c6ccc7c(c6)-n6c(nc(=O)c8c(Cl)cccc86)C76CCCCC6)CC5)CC4)nn3)C(C)(C)C)cc2)o1

1: < 0.1 µM; 2: < 0.1 µM; 3: 0.01 to 0.1 µM
